The reported numbers originate from patent US20110195505A1.

- Tested on: BP63 (L. plantarum PN0512ΔpyrFΔfabZ1)
- measurement description: Fatty acid supplements supporting growth of the fabZ1 mutant
- Type: cell-based
- experimental parameters: fatty acid supplied at 80 mg/L; overnight incubation, OD600
recorded endpoint: Supports growth of BP63

Known Supports growth of BP63 results, listed for orientation:
compound="CCCCCCCC[C@@H]1C[C@@H]1CCCCCCCC(=O)O [dihydrosterculic, Dihydrosterculic acid]" reading=YES
compound="CCCCCCCC/C=C\\CCCCCCCC(=O)O [Oleic acid, oleic acid]" reading=YES
compound="CCCCCC/C=C\\CCCCCCCCCCCC(=O)O [cis 13 eicosenoic]" reading=no
compound="CCCCCCCC/C=C\\CCCCCCCCCC(=O)O [cis 11-eicosenoic]" reading=YES
compound="CCCCCC/C=C\\CCCCCCCC(=O)O [Palmitoleic]" reading=YES

Parameters: items (list). Returns: Supports growth of BP63 for each item.
1. CCCCCC/C=C\CCCCCCCCCC(=O)O [cis-Vaccenic]
2. CCCCCCCCCCCCCC(=O)O [Myristic, Tetradecanoic Acid]
3. CCCCC/C=C\C/C=C\CCCCCCCC(=O)O [Linoleic]
4. CCCCCCCCCCCCCCCCCC(=O)O [Stearic Acid, Octadecanoic Acid]

A)
1. YES
2. no
3. YES
4. no

---

- System: BP63 (L. plantarum PN0512ΔpyrFΔfabZ1)
- measurement description: Fatty acid supplements supporting growth of the fabZ1 mutant
- Type: cell-based
- experimental parameters: fatty acid supplied at 80 mg/L; overnight incubation, OD600
recorded endpoint: Supports growth of BP63

substance_smiles=CCCCCCCCCCCCCCCC(=O)O recorded_endpoint="Supports growth of BP63" reading=no
substance_smiles=CCCCCCCC/C=C/CCCCCCCC(=O)O recorded_endpoint="Supports growth of BP63" reading=YES
